System: Rattus norvegicus
Assay summary: Organ distribution in rat brain 30 minutes after intravenous injection
Format: ADME, organism-based
Measurement context: in vivo, 0.5 h
Would you mind telling me the reported Dose/organ of each entry?
Just the number please, in %, no unit attached.

Challenge: Query Dose/organ for "CC(C)N(CC[Se]CCN(C(C)C)C(C)C)C(C)C"
Response given: 0.33

Challenge: Query Dose/organ for "C[N+](C)(C)CC[Se]CC[N+](C)(C)C"
Response given: 0.06

Challenge: Query Dose/organ for "CN(C)CC[Se]CCN(C)C"
Response given: 0.49

Challenge: Query Dose/organ for "C1CN(CC[Se]CCN2CCOCC2)CCO1"
Response given: 1.53

Challenge: Query Dose/organ for "C1CCN(CC[Se]CCN2CCCCC2)CC1"
Response given: 1.49

* * *

Test system: Rattus norvegicus
Assay summary: Organ distribution in rat lung 2 hr after intravenous injection
Format: ADME, organism-based
Measurement context: in vivo
Returns one of condition met or condition not met; condition met when Dose/organ is >= 1%.

Challenge: Please check the record "C[N+](C)(C)CC[Se]CC[N+](C)(C)C" and state if its Dose/organ is at or above 1%.
Response given: condition not met

Challenge: Please check the record "C1CCN(CC[Se]CCN2CCCCC2)CC1" and state if its Dose/organ is at or above 1%.
Response given: condition not met

Challenge: Please check the record "C1CN(CC[Se]CCN2CCOCC2)CCO1" and state if its Dose/organ is at or above 1%.
Response given: condition not met

Challenge: Please check the record "CN(C)CC[Se]CCN(C)C" and state if its Dose/organ is at or above 1%.
Response given: condition met

Challenge: Please check the record "CC(C)N(CC[Se]CCN(C(C)C)C(C)C)C(C)C" and state if its Dose/organ is at or above 1%.
Response given: condition met

* * *

System: Rattus norvegicus
Assay summary: Organ distribution in rat heart 2 minutes after intravenous injection
Format: ADME, organism-based
Measurement context: in vivo
Readout type: Dose/organ (%)
Just the number please, in %, no unit attached.

Challenge: Give Dose/organ; test system Rattus norvegicus; compound "CN(C)CC[Se]CCN(C)C"
Response given: 2.21

Challenge: Give Dose/organ; test system Rattus norvegicus; compound "C1CN(CC[Se]CCN2CCOCC2)CCO1"
Response given: 0.45

Challenge: Give Dose/organ; test system Rattus norvegicus; compound "CC(C)N(CC[Se]CCN(C(C)C)C(C)C)C(C)C"
Response given: 2.35

Challenge: Give Dose/organ; test system Rattus norvegicus; compound "C1CCN(CC[Se]CCN2CCCCC2)CC1"
Response given: 3.04

* * *

System: Rattus norvegicus
Assay summary: Organ distribution in rat liver 30 minutes after intravenous injection
Type: ADME, organism-based
Measurement context: in vivo, 0.5 h
Would you mind telling me the reported Dose/organ of each entry?
Just the number please, in %, no unit attached.

Challenge: Give Dose/organ; test system Rattus norvegicus; compound "CC(C)N(CC[Se]CCN(C(C)C)C(C)C)C(C)C"
Response given: 16

Challenge: Give Dose/organ; test system Rattus norvegicus; compound "C[N+](C)(C)CC[Se]CC[N+](C)(C)C"
Response given: 5.74

Challenge: Give Dose/organ; test system Rattus norvegicus; compound "C1CCN(CC[Se]CCN2CCCCC2)CC1"
Response given: 14.3

Challenge: Give Dose/organ; test system Rattus norvegicus; compound "C1CN(CC[Se]CCN2CCOCC2)CCO1"
Response given: 23.2

Challenge: Give Dose/organ; test system Rattus norvegicus; compound "CN(C)CC[Se]CCN(C)C"
Response given: 15.1
